Measured values drawn from patent US20240327389A1 for this set.

Biological target: PD-1/PD-L1 interaction (PD-1-Ig / PD-L1-His) (Homo sapiens (Human))
Sequence (Q9NZQ7 18-239): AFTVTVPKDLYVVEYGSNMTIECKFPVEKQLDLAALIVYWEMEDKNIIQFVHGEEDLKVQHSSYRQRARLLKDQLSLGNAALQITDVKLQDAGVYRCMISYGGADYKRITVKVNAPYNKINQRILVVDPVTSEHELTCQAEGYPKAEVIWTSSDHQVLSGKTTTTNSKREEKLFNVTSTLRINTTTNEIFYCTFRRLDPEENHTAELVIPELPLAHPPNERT
Experiment: PD-1/PD-L1 Homogenous Time-Resolved Fluorescence (HTRF) binding assay
Conditions: PD-L1-His 10 nM final, PD-1-Ig 20 nM final
Recorded Metric: log10(IC50) (log10 of the value in nM)
The base-10 logarithm of IC50, taken with IC50 in nM, is what appears here.

Which log10(IC50) value belongs to COc1cc(OCc2cccc(-c3cccc(OCC4CCCN(C)C4)c3Cl)c2C)c(Cl)cc1CN[C@@H]1CCOC1=O (stereo partly drawn) [Compound 1041] ?
0.96

Which log10(IC50) value belongs to CC(=O)N(Cc1cc(Cl)c(COc2cccc(-c3cccc(COc4cc(OCc5cncc(C#N)c5)c(CN(C(C)=O)[C@@H]5COC(=O)C5)cc4Cl)c3C)c2C)cc1OCc1cncc(C#N)c1)[C@@H]1COC(=O)C1 [Compound 1050] ?
1.67

Which log10(IC50) value belongs to Cc1c(COc2cc(OCc3cncc(C#N)c3)c(CN[C@@H]3COC(=O)C3)cc2Cl)cccc1-c1cccc(OCC2CCCN(C)C2)c1Cl (stereo partly drawn) [Compound 1004] ?
0.49

Which log10(IC50) value belongs to Cc1c(COc2cc(OCc3cncc(C#N)c3)c(CNC3CC(C)(C)OC3=O)cc2Cl)cccc1-c1cccc(COc2cc(OCc3cncc(C#N)c3)c(CNC3CC(C)(C)OC3=O)cc2Cl)c1C (stereo not drawn) [Compound 1022] ?
2.16

Which log10(IC50) value belongs to COc1cc(OCc2cccc(-c3cccc(OCC4CCCN(C)C4)c3Cl)c2C)c(Cl)cc1CNC1CC(C)OC1=O (stereo not drawn) [Compound 1033] ?
1.06

Which log10(IC50) value belongs to Cc1c(COc2cc(OCc3cncc(C#N)c3)c(CNC3C(=O)OCC3(C)C)cc2Cl)cccc1-c1cccc(OCC2CCCN(C)C2)c1Cl (stereo not drawn) [Compound 1008] ?
0.64

Which log10(IC50) value belongs to Cc1c(COc2cc(OCc3cncc(C#N)c3)c(CN[C@H]3CCCNC3=O)cc2Cl)cccc1-c1cccc(OCC2CCCN(C)C2)c1Cl (stereo partly drawn) [Compound 1013] ?
0.60

Which log10(IC50) value belongs to COc1cc(OCc2cccc(-c3cccc(OCC4CCCN(C)C4)c3Cl)c2C)c(Cl)cc1CNC1CCOC1=O (stereo not drawn) [Compound 1032] ?
0.89

Which log10(IC50) value belongs to Cc1c(COc2cc(OCc3cncc(C#N)c3)c(CN[C@@H]3CCOC3=O)cc2Cl)cccc1-c1cccc(COc2cc(OCc3cncc(C#N)c3)c(CN[C@@H]3CCOC3=O)cc2Cl)c1C [Compound 1020] ?
0.86

Which log10(IC50) value belongs to COc1cc(OCc2cccc(-c3cccc(OCC4CCCN(C)C4)c3Cl)c2C)c(Cl)cc1CNC1CCNC1=O (stereo not drawn) [Compound 1038] ?
0.68

Which log10(IC50) value belongs to COc1cc(OCc2cccc(-c3cccc(OCC4CCCN(C)C4)c3Cl)c2C)c(Cl)cc1CN[C@H]1COC(=O)C1 (stereo partly drawn) [Compound 1042] ?
0.75

Which log10(IC50) value belongs to Cc1c(COc2cc3c(cc2Cl)CN(C2CCOC2=O)CC(O)CO3)cccc1-c1cccc(OCC2CCCN(C)C2)c1Cl (stereo not drawn) [Compound 1049] ?
1.06
